TEST_TARGET: human Siglec-7 on primary human monocyte-derived dendritic cells (human, UniProt Q9Y286 19-467)
Sequence (Q9Y286 19-467): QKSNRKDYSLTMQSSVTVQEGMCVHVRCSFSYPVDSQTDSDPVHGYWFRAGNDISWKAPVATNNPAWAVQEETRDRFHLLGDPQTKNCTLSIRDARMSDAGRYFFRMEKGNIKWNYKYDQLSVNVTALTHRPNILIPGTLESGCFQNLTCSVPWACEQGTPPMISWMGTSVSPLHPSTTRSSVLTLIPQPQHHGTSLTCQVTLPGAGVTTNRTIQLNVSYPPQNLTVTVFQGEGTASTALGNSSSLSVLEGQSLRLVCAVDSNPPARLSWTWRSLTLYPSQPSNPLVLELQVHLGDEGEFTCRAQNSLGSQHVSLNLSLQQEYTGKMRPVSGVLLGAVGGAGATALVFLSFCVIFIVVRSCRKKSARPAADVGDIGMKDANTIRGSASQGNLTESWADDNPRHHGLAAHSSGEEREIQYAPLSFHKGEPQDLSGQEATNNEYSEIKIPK
PROTOCOL: cell-based or functional assay
QUANTITY_MEASURED: Fold increase in potency compared to AB-H8 (fold)
Please give a number only; it is taken to be in fold.

>  <BINDER>
S7AB-H8.6 (antibody, V domains shown) VH: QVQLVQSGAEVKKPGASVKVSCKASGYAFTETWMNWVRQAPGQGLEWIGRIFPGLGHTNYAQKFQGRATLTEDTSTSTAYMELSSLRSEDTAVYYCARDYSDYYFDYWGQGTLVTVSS VL: DIQMTQSPSSLSASVGDRVTITCRGSQDINTYLNWYQQKPGKAPKLLIYYTSRLHSGVPSRFSGSGSGTDYTLTISSLQPEDFATYYCQQGNTKPWTFGQGTKLEIK

>  <MEASURE_UNIT>
fold

>  <ENDPOINT_VALUE>
2.2

$$$$
>  <BINDER>
S7AB-H8.42 (antibody, V domains shown) VH: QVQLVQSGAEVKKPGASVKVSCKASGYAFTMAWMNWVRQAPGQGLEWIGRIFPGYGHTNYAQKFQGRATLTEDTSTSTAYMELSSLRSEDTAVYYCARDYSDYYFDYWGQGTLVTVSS VL: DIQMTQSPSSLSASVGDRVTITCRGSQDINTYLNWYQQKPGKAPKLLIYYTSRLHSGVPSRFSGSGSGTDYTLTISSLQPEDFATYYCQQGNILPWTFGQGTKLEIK

>  <MEASURE_UNIT>
fold

>  <ENDPOINT_VALUE>
5.4

$$$$
>  <BINDER>
S7AB-H8.23 (antibody, V domains shown) VH: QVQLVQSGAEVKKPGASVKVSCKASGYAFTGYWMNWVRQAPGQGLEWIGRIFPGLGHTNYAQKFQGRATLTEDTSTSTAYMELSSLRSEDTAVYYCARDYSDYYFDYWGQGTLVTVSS VL: DIQMTQSPSSLSASVGDRVTITCRASEDINTYLNWYQQKPGKAPKLLIYYTSRLHSGVPSRFSGSGSGTDYTLTISSLQPEDFATYYCQQGGTLPWTFGQGTKLEIK

>  <MEASURE_UNIT>
fold

>  <ENDPOINT_VALUE>
3.8

$$$$
>  <BINDER>
S7AB-H8.3 (antibody, V domains shown) VH: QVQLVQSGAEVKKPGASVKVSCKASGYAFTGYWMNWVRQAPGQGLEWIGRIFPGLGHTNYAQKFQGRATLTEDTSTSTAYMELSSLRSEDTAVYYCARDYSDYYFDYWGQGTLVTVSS VL: DIQMTQSPSSLSASVGDRVTITCRGSQDINTYLNWYQQKPGKAPKLLIYYTSRLHSGVPSRFSGSGSGTDYTLTISSLQPEDFATYYCQQGNLLPWTFGQGTKLEIK

>  <MEASURE_UNIT>
fold

>  <ENDPOINT_VALUE>
3.8

$$$$
>  <BINDER>
S7AB-H8.12 (antibody, V domains shown) VH: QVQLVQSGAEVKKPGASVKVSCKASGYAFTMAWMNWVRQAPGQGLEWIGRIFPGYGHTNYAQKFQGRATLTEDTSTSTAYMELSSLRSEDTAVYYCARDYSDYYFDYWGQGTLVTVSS VL: DIQMTQSPSSLSASVGDRVTITCRGSQDINTYLNWYQQKPGKAPKLLIYYTSRLHSGVPSRFSGSGSGTDYTLTISSLQPEDFATYYCQGGNTLPWTFGQGTKLEIK

>  <MEASURE_UNIT>
fold

>  <ENDPOINT_VALUE>
0.01

$$$$

Looking for the measured Fold increase in potency compared to AB-H8 of S7AB-H8.34.2 (antibody, V domains shown) VH: QVQLVQSGAEVKKPGASVKVSCKASGYAFTAAWMNWVRQARGQRLEWIGRIFPGLGHTNYAQKFQGRATLTEDTSTSTAYMELSSLRSEDTAVYYCARDYSDYYFDYWGQGTLVTVSS VL: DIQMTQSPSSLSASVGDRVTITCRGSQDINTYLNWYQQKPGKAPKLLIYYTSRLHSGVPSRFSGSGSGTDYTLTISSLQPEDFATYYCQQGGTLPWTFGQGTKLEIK , can you help? 3.3
